Test: Volume of distribution at steady state in ICR(CD-1) mouse at 5 mg/kg, iv treated up to 24 hrs by LC-MS/MS analysis
Format: ADME, organism-based
Settings: in vivo, read-out: Vdss
quantity: Vd (L/kg)
One number for each entry, in L/kg.

Which measured Vd value corresponds to `O=C(NO)c1cccc2[nH]c(C#Cc3cccc(C(F)(F)F)c3)cc12` ?
10.2

###

Test: AUC (0 to infinity) in ICR(CD-1) mouse at 5 mg/kg, iv treated up to 24 hrs by LC-MS/MS analysis
Type: ADME, organism-based
Details: in vivo
quantity: AUC(0-inf) (ng·h/mL)
Numbers only, in ng·h/mL.

Look up AUC(0-inf) for this compound: `O=C(NO)c1cccc2[nH]c(C#Cc3cccc(C(F)(F)F)c3)cc12`
625

###

Tested on: THP-1
Experiment: Antiproliferative activity against human THP-1 cells assessed as cell growth inhibition incubated for 2 days by CCK-8 assay
Details: THP-1, 48 h
quantity: IC50

Which IC50 is listed for `O=C(NO)c1cccc2[nH]c(C#Cc3cccc(C(F)(F)F)c3)cc12` ?
≤ 10 µM

###

Assay: AUC (0 to infinity) in ICR(CD-1) mouse at 50 mg/kg, ip treated up to 24 hrs by LC-MS/MS analysis
Assay type: ADME, organism-based
Conditions: in vivo
quantity: AUC(0-inf) (ng·h/mL)
Answers are plain numbers, in ng·h/mL.

# lookup: AUC(0-inf) of `O=C(NO)c1cccc2[nH]c(C#Cc3cccc(C(F)(F)F)c3)cc12`
2000

###

Assay: MRT (0 to infinity) in ICR(CD-1) mouse at 5 mg/kg, iv treated up to 24 hrs by LC-MS/MS analysis
Format: ADME, organism-based
Conditions: in vivo
quantity: MRT inf

# lookup: MRT inf of `O=C(NO)c1cccc2[nH]c(C#Cc3cccc(C(F)(F)F)c3)cc12`
1.27 h

###

Test: Cytotoxicity against HEK293T cells assessed as cell viability incubated for 2 days by CCK-8 assay
Assay type: toxicity, cell-based, HEK-293T
Conditions: human
quantity: IC50 at 2 days (µM)
One number for each entry, in µM.

State the recorded IC50 at 2 days for this entry: `O=C(NO)c1cccc2[nH]c(C#Cc3cccc(C(F)(F)F)c3)cc12`
80

###

Biological target: Histone deacetylase 8 (Homo sapiens, UniProt Q9BY41)
Sequence (Q9BY41 whole entry): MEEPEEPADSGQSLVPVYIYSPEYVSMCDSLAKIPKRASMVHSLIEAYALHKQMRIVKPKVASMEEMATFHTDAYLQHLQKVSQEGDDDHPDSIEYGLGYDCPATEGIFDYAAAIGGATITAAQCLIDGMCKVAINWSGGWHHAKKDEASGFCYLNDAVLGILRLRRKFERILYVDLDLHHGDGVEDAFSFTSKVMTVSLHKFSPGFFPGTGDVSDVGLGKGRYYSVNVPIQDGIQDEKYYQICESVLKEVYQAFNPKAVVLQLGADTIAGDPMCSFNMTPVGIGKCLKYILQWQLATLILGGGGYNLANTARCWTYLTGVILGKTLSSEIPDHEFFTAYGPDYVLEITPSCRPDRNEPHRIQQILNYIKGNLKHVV
Experiment: Inhibition of C-terminal His-tagged full length human recombinant HDAC8 (1 to 377 end residues) expressed in Sf9 cells using Boc-Lys-(trifluoroacetyl)-AMC as substrate preincubated with enzyme for 1 hr followed by substrate addition and measured after 30 mins by fluorescence analysis
quantity: IC50

Recorded IC50 for `CCCCCCCCCCCCCCCCNNC(=O)c1cccs1` with Histone deacetylase 8 (Homo sapiens, UniProt Q9BY41), please?
> 100 µM

###

Assay: Bioavailability in ICR(CD-1) mouse at 50 mg/kg, ip treated up to 24 hrs by LC-MS/MS analysis
Type: ADME, organism-based
Details: in vivo
quantity: bioavailability (%)
Numbers only, in %.

Endpoint output: bioavailability of `O=C(NO)c1cccc2[nH]c(C#Cc3cccc(C(F)(F)F)c3)cc12` . Value?
32

###

Please provide measured pIC50 for the entries that follow.
Target: UniProt:P56524
Sequence (P56524 whole entry): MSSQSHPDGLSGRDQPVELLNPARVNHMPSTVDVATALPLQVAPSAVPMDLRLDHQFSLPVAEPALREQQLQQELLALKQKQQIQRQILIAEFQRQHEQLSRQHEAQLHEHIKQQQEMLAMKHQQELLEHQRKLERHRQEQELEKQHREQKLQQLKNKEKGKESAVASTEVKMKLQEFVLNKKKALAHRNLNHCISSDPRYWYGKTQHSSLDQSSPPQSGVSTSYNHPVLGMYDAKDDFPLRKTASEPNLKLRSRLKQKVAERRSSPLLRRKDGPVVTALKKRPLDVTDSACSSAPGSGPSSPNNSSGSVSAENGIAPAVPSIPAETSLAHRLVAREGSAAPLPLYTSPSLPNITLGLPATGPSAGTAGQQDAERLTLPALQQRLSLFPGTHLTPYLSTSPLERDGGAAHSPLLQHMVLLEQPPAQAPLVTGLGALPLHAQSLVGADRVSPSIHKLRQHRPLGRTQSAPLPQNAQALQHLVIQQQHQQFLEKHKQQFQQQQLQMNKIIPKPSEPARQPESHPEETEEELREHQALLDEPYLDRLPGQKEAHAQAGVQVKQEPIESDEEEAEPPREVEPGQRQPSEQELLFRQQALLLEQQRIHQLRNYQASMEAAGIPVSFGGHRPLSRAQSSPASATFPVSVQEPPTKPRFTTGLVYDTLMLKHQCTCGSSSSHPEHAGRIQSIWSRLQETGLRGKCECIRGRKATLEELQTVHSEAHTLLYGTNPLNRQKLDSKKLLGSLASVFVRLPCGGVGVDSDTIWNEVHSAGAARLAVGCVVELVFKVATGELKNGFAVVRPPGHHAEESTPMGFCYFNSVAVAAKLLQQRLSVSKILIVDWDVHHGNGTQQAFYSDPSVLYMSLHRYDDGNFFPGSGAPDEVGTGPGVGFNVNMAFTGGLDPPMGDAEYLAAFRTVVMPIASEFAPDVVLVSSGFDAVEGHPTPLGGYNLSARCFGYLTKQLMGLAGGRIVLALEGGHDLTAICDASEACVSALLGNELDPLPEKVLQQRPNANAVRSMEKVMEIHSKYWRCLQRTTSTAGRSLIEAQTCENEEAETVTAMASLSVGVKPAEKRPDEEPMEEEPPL
Assay: Inhibition of N-terminal GST-tagged C-terminal His-tagged human HDAC4 (627 to 1084 end residues) expressed in baculovirus expression system in Sf9 cells using Boc-Lys-(trifluoroacetyl)-AMC as substrate preincubated with enzyme for 1 hr followed by substrate addition and measured after 30 mins by fluorescence analysis
pIC50: −log10 of the molar value.

Reference set (2 entries):
Notebook: pull reported pIC50 for UniProt:P56524, entry `O=C(NO)c1cccc2[nH]c(C#Cc3cccc(C(F)(F)F)c3)cc12`
< 4.00

Try `O=C(NO)c1cccc2[nH]c(C#Cc3ccccc3)cc12` next.
< 4.00

Turning now to a further record.
Give pIC50 (UniProt:P56524) of the following molecule: `CCCCCCCCCCCCCCCCNNC(=O)c1cccs1`
< 4.00

These measurements were taken from ChEMBL document CHEMBL6134843.
